Test system: HRV serotype 30
Assay: Antirhinoviral H1-HeLa cell culture assay (XTT), HRV-30
Assay type: cell-based
Conditions: Human rhinovirus sp., H1-HeLa cells
pEC50: −log10 of the molar value.

# Compound, pEC50
records = [
    ("CCOC(=O)/C=C/[C@H](C[C@@H]1CCNC1=O)NC(=O)[C@H](Cc1ccc(F)cc1)NC(=O)[C@@H](NC(=O)c1cc(C)on1)C(C)C [(A-5)]", 7.22),
    ("CCOC(=O)/C=C/[C@H](C[C@@H]1CCNC1=O)NC(=O)[C@H](Cc1ccc(F)cc1)NC(=O)[C@@H](NC(=O)c1cc(C)on1)C(C)(C)C [(A-7)]", 7.05),
]

* * *

Overview of reported CC50 at 2 days across a group of compounds:
Assay: Cytotoxicity in mock-infected H1-HeLa cells (antirhinoviral assay, XTT)
Assay type: cell-based
Settings: human, 50% cytotoxic dose
Experimental readout: CC50 at 2 days

# Compound, Experimental readout, Assay result
records = [
    ("CCOC(=O)/C=C/[C@H](CCC(N)=O)NC(=O)[C@H](Cc1ccc(F)cc1)N(C)C(=O)[C@H](Cc1c[nH]cn1)NC(=O)c1cc(C)on1", "CC50 at 2 days", "> 100 µM"),
    ("Cc1cc(C(=O)N[C@H](C(=O)C[C@@H](Cc2ccc(F)cc2)C(=O)N[C@H](/C=C2\\CCOC2=O)C[C@@H]2CCNC2=O)C(C)C)no1", "CC50 at 2 days", "> 100 µM"),
    ("CCOC(=O)/C=C/[C@H](CCC(N)=O)NC(=O)[C@H](Cc1ccc(F)cc1)N(C)C(=O)[C@H](Cc1ccc2ccccc2c1)NC(=O)c1cc(C)on1", "CC50 at 2 days", "50 µM"),
    ("CCOC(=O)/C=C/[C@H](CCC(N)=O)NC(=O)[C@H](Cc1ccc(F)cc1)OC(=O)[C@@H](NC(=O)c1cc(C)on1)C(C)C", "CC50 at 2 days", "> 10 µM"),
    ("CCOC(=O)/C=C/[C@H](CCC(N)=O)NC(=O)[C@H](Cc1ccc(F)cc1)N(C)C(=O)[C@H](CC(C)C)NC(=O)c1cc(C)on1", "CC50 at 2 days", "> 100 µM"),
    ("CCOC(=O)/C=C/[C@H](CCC(N)=O)NC(=O)[C@H](Cc1ccccc1)NC(=O)[C@H](CC(C)C)NC(=O)OCc1ccccc1", "CC50 at 2 days", "> 320 µM"),
    ("CCOC(=O)/C=C/[C@H](CCC(N)=O)NC(=O)[C@H](Cc1ccccc1)N(C)C(=O)[C@H](CC(C)C)NC(=O)c1cc(C)on1", "CC50 at 2 days", "> 100 µM"),
    ("CCOC(=O)/C=C/[C@H](C[C@@H]1CCCNC1=O)NC(=O)[C@H](Cc1ccccc1)NC(=O)[C@H](CC(C)C)NC(=O)OCc1ccccc1", "CC50 at 2 days", "> 100 µM"),
    ("Cc1cc(CCCOc2c(C)cc(-c3noc(C(F)(F)F)n3)cc2C)on1 [Pleconaril, reference compound]", "CC50 at 2 days", "> 10 µM"),
    ("CCOC(=O)/C=C/[C@H](CCC(N)=O)NC(=O)[C@H](Cc1ccccc1)NC(=O)[C@H](CC(C)C)NC(=O)c1cc(C)on1", "CC50 at 2 days", "> 100 µM"),
    ("CCOC(=O)/C=C/[C@H](CCC(N)=O)NC(=O)[C@H](Cc1ccc(F)cc1)NC(=O)[C@@H](NC(=O)c1cc(C)on1)C(C)C", "CC50 at 2 days", "> 100 µM"),
    ("CCOC(=O)c1ccc(OCCC2CCN(c3ccc(C)nn3)CC2)cc1 [Pirodavir, reference compound]", "CC50 at 2 days", "> 10 µM"),
    ("CCOC(=O)/C=C/[C@H](C[C@@H]1CCNC1=O)NC(=O)[C@H](Cc1ccc(F)cc1)NC(=O)[C@@H](NC(=O)c1cc(C)on1)C(C)(C)C", "CC50 at 2 days", "> 10 µM"),
    ("CCOC(=O)/C=C/[C@H](CCC(N)=O)NC(=O)[C@H](Cc1ccc(F)cc1)N(C)C(=O)[C@H](Cc1cccc2ccccc12)NC(=O)c1cc(C)on1", "CC50 at 2 days", "> 10 µM"),
    ("CCOC(=O)/C=C/[C@H](C[C@@H]1CCNC1=O)NC(=O)[C@H](Cc1ccc(F)cc1)OC(=O)[C@@H](NC(=O)c1cc(C)on1)C(C)C", "CC50 at 2 days", "> 10 µM"),
    ("CCOC(=O)/C=C/[C@H](C[C@@H]1CCNC1=O)NC(=O)[C@H](Cc1ccccc1)NC(=O)[C@H](CC(C)C)NC(=O)OCc1ccccc1", "CC50 at 2 days", "> 100 µM"),
    ("CC(C)C[C@H](NC(=O)OCc1ccccc1)C(=O)N[C@@H](Cc1ccccc1)C(=O)N[C@H](/C=C/c1ccno1)CCC(N)=O [Comparison Compound #1, reference compound]", "CC50 at 2 days", "> 320 µM"),
    ("CCOC(=O)/C=C/[C@H](CCC(N)=O)NC(=O)[C@H](Cc1ccc(C)cc1)NC(=O)[C@@H](NC(=O)c1cc(C)on1)C(C)(C)C", "CC50 at 2 days", "> 10 µM"),
    ("CCOC(=O)/C=C/[C@H](C[C@@H]1CCNC1=O)NC(=O)[C@H](Cc1ccc(F)cc1)NC(=O)[C@@H](NC(=O)c1cc(C)on1)C(C)C", "CC50 at 2 days", "> 10 µM"),
    ("CCOC(=O)/C=C/[C@H](C[C@@H]1CCCNC1=O)NC(=O)[C@@H](CC(=O)[C@@H](NC(=O)c1cc(C)on1)C(C)C)Cc1ccc(F)cc1", "CC50 at 2 days", "> 100 µM"),
]

* * *

System: HRV serotype 12
Assay: Antirhinoviral H1-HeLa cell culture assay (XTT), HRV-12
Assay type: cell-based
Settings: Human rhinovirus sp., H1-HeLa cells
pEC50: −log10 of the molar value.
Experimental readout: pEC50

# Item smiles, Assay result
rows = [
    ("CCOC(=O)/C=C/[C@H](C[C@@H]1CCNC1=O)NC(=O)[C@H](Cc1ccc(F)cc1)NC(=O)[C@@H](NC(=O)c1cc(C)on1)C(C)(C)C", 7.15),
    ("CCOC(=O)/C=C/[C@H](C[C@@H]1CCNC1=O)NC(=O)[C@H](Cc1ccc(F)cc1)NC(=O)[C@@H](NC(=O)c1cc(C)on1)C(C)C", 7.22),
]

* * *

System: HRV-14
Experiment: Antirhinoviral H1-HeLa cell culture assay (XTT), HRV-14
Type: cell-based, human rhinovirus
Settings: HRV serotype-14, H1-HeLa cells (Table 3); read-out: EC50

# Molecule, Unit of measurement, EC50
rows = [
    ("CCOC(=O)/C=C/[C@H](CCC(N)=O)NC(=O)[C@H](Cc1ccccc1)NC(=O)[C@@H](NC(=O)c1cccs1)C(C)(C)C", "nM", 480),
    ("Cc1cc(CCCCCCCOc2ccc(C3=NCCO3)cc2)on1 [WIN 51711, reference compound]", "nM", 780),
    ("CC(C)[C@H](NC(=O)C1SCCS1)C(=O)N[C@@H](Cc1ccc(F)cc1)C(=O)N[C@H](/C=C/C(=O)OCc1cccnc1)CCC(N)=O", "nM", 1500),
    ("Cc1cc(CCCCCOc2c(Cl)cc(C3=NCCO3)cc2Cl)on1 [WIN 54954, reference compound]", "nM", 2130),
    ("CCOC(=O)/C=C/[C@H](CCC(N)=O)NC(=O)[C@H](Cc1ccccc1)NC(=O)[C@H](CC(C)C)NC(=O)c1nc(C)c[nH]1", "nM", 2500),
    ("CCOC(=O)/C=C/[C@H](CCC(N)=O)NC(=O)[C@H](Cc1ccccc1)NC(=O)[C@H](CC(C)C)NC(=O)[C@@H]1C=CCN1", "nM", 25100),
    ("CCOC(=O)/C=C/[C@H](CCC(N)=O)NC(=O)[C@H](Cc1ccc(C)cc1)NC(=O)[C@@H](NC(=O)c1ccc[nH]1)C(C)(C)C", "nM", 450),
]

* * *

Test system: H1-HeLa cells
Assay: Cytotoxicity in uninfected H1-HeLa cells (anticoxsackieviral assay, XTT)
Format: cell-based
Conditions: 50% cytotoxic dose, uninfected H1-HeLa cells (Table 4)

# Compound, CC50
data = [
    ("Cc1cc(CCCCCOc2c(Cl)cc(C3=NCCO3)cc2Cl)on1 [WIN 54954, reference compound]", "> 100 µM"),
]

* * *

Tested on: HRV-14
Experiment: Antirhinoviral H1-HeLa cell culture assay (XTT), HRV-14
Type: cell-based, human rhinovirus
Conditions: HRV serotype-14, H1-HeLa cells (Table 3); read-out: EC50
Overview of reported EC50 across a group of molecules:
Experimental readout: EC50 (nM)

# Molecule, Assay result
records = [
    ("Cc1cc(CCCCCCCOc2ccc(C3=N[C@@H](C)CO3)cc2)on1 [WIN 52084, reference compound]", 70),
    ("CCOC(=O)/C=C/[C@H](CCC(N)=O)NC(=O)[C@H](Cc1ccc(C)cc1)NC(=O)[C@@H](NC(=O)C1SCCS1)C(C)(C)C", 220),
    ("CCOC(=O)/C=C/[C@H](CCC(N)=O)NC(=O)[C@H](Cc1ccccc1)NC(=O)[C@H](CC(C)C)NC(=O)c1cc(C)oc1C", 12600),
]
